Values were extracted from ChEMBL document CHEMBL4689842.

Tested on: U2OS
Test: Multiplex assay against U2OS
Assay type: toxicity, cell-based
Conditions: human, 24 h, 10 µM, compound concentration 10 uM, replicate 1
recorded_metric: Population Hoechst High Intensity Objects (%)

molecule | numeric_result
C[C@@H]1CN(c2cc(-c3nn(C)c4ccc(OC5(C)CC5)cc34)ncn2)C[C@H](C)O1 | 1
CC(=O)c1cc(-c2cc(C(=O)NC3CC3)ccc2C)c2ncccn12 | 2
Cc1cn(-c2cc(NC(=O)c3ccc4c(c3)CN(c3cncnc3)C[C@@H]4C)cc(C(F)(F)F)c2)cn1 | 4
CC(C)(C)c1cnc(CSc2cnc(NC(=O)C3CCNCC3)s2)o1 | 9
COc1cc2c(Nc3ccc(NC(=O)c4ccccc4)cc3)ncnc2cc1OCCCN1CCOCC1 | 8
CCc1cc2c(cc1CC)CC(NC[C@H](O)c1ccc(O)c3[nH]c(=O)ccc13)C2 | 4
CCCn1c(=O)c2[nH]c(C34CC5CC(CC3C5)C4)nc2n(CCC)c1=O | 10
COc1cc2c(NC3CCN(C(C)C)CC3)nc(N3CCC(F)(F)CC3)nc2cc1OCCCN1CCCC1 | 6
CN(C)CCOc1ccc(-c2nc(-c3ccncc3)c(-c3ccc4c(c3)CC/C4=N\O)[nH]2)cc1 | 2
N#Cc1cnc(Nc2cc(NC[C@H]3CNCCO3)c(C(F)(F)F)cn2)cn1 | 4
CC(C)N1CCC(C)(C)c2cc(C#Cc3ccc(C(=O)O)cc3)ccc21 | 48
CCOc1cc(N2CCC(O)CC2)ccc1Nc1ncc2c(n1)N(C1CCCC1)CCC(=O)N2C | 1
CCOc1cc2ncc(C#N)c(Nc3ccc(OCc4cccc(F)c4)c(Cl)c3)c2cc1NC(=O)/C=C/CN(C)C | 4
CCC(=O)O[C@]1(C(=O)SCF)[C@H](C)C[C@H]2[C@@H]3C[C@H](F)C4=CC(=O)C=C[C@]4(C)[C@@]3(F)[C@@H](O)C[C@@]21C [FLUTICASONE PROPIONATE] | 9
CNc1oc(-c2cccc3ccccc23)nc1C#N | 43

---

Tested on: HEK-293T
Assay: Multiplex assay against HEK293T
Format: toxicity, cell-based
Conditions: human, 12 h, 1 µM, compound concentration 1 uM, replicate 1
Listed here are molecules together with their documented Population Membrane Permeable-Phenotype (%).
recorded_metric: Population Membrane Permeable-Phenotype (%)

molecule | result
CC(=O)c1cc(-c2cc(C(=O)NC3CC3)ccc2C)c2ncccn12 | 3%
CNc1oc(-c2cccc3ccccc23)nc1C#N | 3%
Cl.Cl.NC1(c2ccc(-c3nc4ccn5c(=O)[nH]nc5c4cc3-c3ccccc3)cc2)CCC1 | 13%
COc1cc(N2CCC(N(C)C)CC2)ccc1Nc1ncc(Cl)c(Nc2ccccc2P(C)(C)=O)n1 | 1%
Cc1cc2c(cc1N1C(=O)c3cccc4c(CCCO)ccc(c34)C1=O)n(C)c(=O)n2C | 4%
Cl.Cl.Nc1ncnc2c1c(-c1cccc(OCc3ccccc3)c1)cn2[C@H]1C[C@@H](CN2CCC2)C1 | 5%
COc1ccc(NS(=O)(=O)c2sc3ccc(Cl)cc3c2C)cc1N1CCNCC1.Cl | 5%
CCc1cc2c(cc1CC)CC(NC[C@H](O)c1ccc(O)c3[nH]c(=O)ccc13)C2 [INDACATEROL] | 4%
CC(C)(C)c1cnc(CSc2cnc(NC(=O)C3CCNCC3)s2)o1 [BMS-387032] | 3%

---

Test system: HEK-293T
Test: Multiplex assay against HEK293T;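 as to Population Tubulin-Different-Phenotype (%): share of the cells with healthy nuclei that show this phenotype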
Assay type: toxicity, cell-based
Settings: human, 24 h, 10 µM, compound concentration 10 uM, replicate 2
Listed next: entries and their corresponding Population Tubulin-Different-Phenotype (%).
recorded_metric: Population Tubulin-Different-Phenotype (%)

molecule | result
Cc1cn(-c2cc(NC(=O)c3ccc4c(c3)CN(c3cncnc3)C[C@@H]4C)cc(C(F)(F)F)c2)cn1 | 55%
CN(C)C/C=C/C(=O)Nc1cc2c(Nc3ccc(F)c(Cl)c3)ncnc2cc1O[C@H]1CCOC1.O=C(O)/C=C\C(=O)O.O=C(O)/C=C\C(=O)O [AFATINIB DIMALEATE] | 90%
CC(=O)c1cc(-c2cc(C(=O)NC3CC3)ccc2C)c2ncccn12 | 30%
CCOc1cc2ncc(C#N)c(Nc3ccc(OCc4cccc(F)c4)c(Cl)c3)c2cc1NC(=O)/C=C/CN(C)C | 70%

---

Test system: HEK-293T
Assay: Multiplex assay against HEK293T
Format: toxicity, cell-based
Conditions: human, 48 h, 10 µM, compound concentration 10 uM, replicate 2
Entries and their measured Population Healthy Nuclei (%) follow.

compound | Population Healthy Nuclei (%)
Cc1nc(Cc2cccc(C(F)(F)F)c2)sc1-c1ccc(C(N)=O)nc1 [TP-024n] | 39
Nc1nc2c(c(N3CCNCC3)n1)CCC1=C2[C@@H]2CCCC[C@@H]2O1 | 54
CC(C)N1CCC(C)(C)c2cc(C#Cc3ccc(C(=O)O)cc3)ccc21 | 73
COc1cc2c(NC3CCN(C(C)C)CC3)nc(N3CCC(F)(F)CC3)nc2cc1OCCCN1CCCC1 | 38
CC(C)Oc1ccc(C(=O)N[C@H](CNC(=O)CN(C)C)Cc2ccc(-c3cn4cccc([C@H](C)O)c4n3)cc2)cc1Cl [GSK-923295A] | 53
CC(=O)c1cc(-c2cc(C(=O)NC3CC3)ccc2C)c2ncccn12 | 58
CCC(=O)O[C@]1(C(=O)SCF)[C@H](C)C[C@H]2[C@@H]3C[C@H](F)C4=CC(=O)C=C[C@]4(C)[C@@]3(F)[C@@H](O)C[C@@]21C [FLUTICASONE PROPIONATE] | 74
CCCn1c(=O)c2[nH]c(C34CC5CC(CC3C5)C4)nc2n(CCC)c1=O | 55

---

Test system: HEK-293T
Assay: Multiplex assay against HEK293T
Type: toxicity, cell-based
Conditions: human, 24 h, 1 µM, compound concentration 1 uM, replicate 2
# Population Hoechst High Intensity Objects (%) per entry
recorded_metric: Population Hoechst High Intensity Objects (%)

compound | numeric_result
CN(C)C/C=C/C(=O)Nc1cc2c(Nc3ccc(F)c(Cl)c3)ncnc2cc1O[C@H]1CCOC1.O=C(O)/C=C\C(=O)O.O=C(O)/C=C\C(=O)O [AFATINIB DIMALEATE] | 3
CN(C)CCOc1ccc(-c2nc(-c3ccncc3)c(-c3ccc4c(c3)CC/C4=N\O)[nH]2)cc1 | 18
CCc1cc2c(cc1CC)CC(NC[C@H](O)c1ccc(O)c3[nH]c(=O)ccc13)C2 | 2
CC(C)(C)c1cnc(CSc2cnc(NC(=O)C3CCNCC3)s2)o1 | 8

---

Test system: Fibroblast
Experiment: Multiplex assay against human fibroblast
Format: toxicity, cell-based
Details: 24 h, 1 µM, compound concentration 1 uM, replicate 1
recorded_metric: Population Normal (%)

compound | result
COc1ccc(NS(=O)(=O)c2sc3ccc(Cl)cc3c2C)cc1N1CCNCC1.Cl | 88%
FC(F)c1nc2ccccc2n1-c1nc(N2CCOCC2)nc(N2CCOCC2)n1 | 87%
Cl.Cl.Nc1ncnc2c1c(-c1cccc(OCc3ccccc3)c1)cn2[C@H]1C[C@@H](CN2CCC2)C1 | 73%
CCCn1c(=O)c2[nH]c(C34CC5CC(CC3C5)C4)nc2n(CCC)c1=O | 86%
CC(=O)c1cc(-c2cc(C(=O)NC3CC3)ccc2C)c2ncccn12 | 84%
c1ccc2oc(-c3csc(C4CCN(Cc5nc6ncccc6[nH]5)CC4)n3)cc2c1 | 87%
CCC(=O)O[C@]1(C(=O)SCF)[C@H](C)C[C@H]2[C@@H]3C[C@H](F)C4=CC(=O)C=C[C@]4(C)[C@@]3(F)[C@@H](O)C[C@@]21C [FLUTICASONE PROPIONATE] | 74%
N#Cc1cnc(Nc2cc(NC[C@H]3CNCCO3)c(C(F)(F)F)cn2)cn1 | 90%
CCn1c(-c2nonc2N)nc2cnc(Oc3cccc(NC(=O)c4ccc(OCCN5CCOCC5)cc4)c3)cc21 [GSK-269962A] | 85%
CNC(=O)c1cc(Oc2ccc(NC(=O)Nc3cc(C(C)(C)C)nn3-c3ccc4ncccc4c3)c(F)c2)ccn1 | 87%
Cc1cn(-c2cc(NC(=O)c3ccc4c(c3)CN(c3cncnc3)C[C@@H]4C)cc(C(F)(F)F)c2)cn1 | 80%
CN(C)C/C=C/C(=O)Nc1cc2c(Nc3ccc(F)c(Cl)c3)ncnc2cc1O[C@H]1CCOC1.O=C(O)/C=C\C(=O)O.O=C(O)/C=C\C(=O)O [AFATINIB DIMALEATE] | 81%
CN(C)CCOc1ccc(-c2nc(-c3ccncc3)c(-c3ccc4c(c3)CC/C4=N\O)[nH]2)cc1 | 56%
CC(C)N1CCC(C)(C)c2cc(C#Cc3ccc(C(=O)O)cc3)ccc21 | 58%
Cc1nc(Cc2cccc(C(F)(F)F)c2)sc1-c1ccc(C(N)=O)nc1 [TP-024n] | 88%
CCOc1cc2ncc(C#N)c(Nc3ccc(OCc4cccc(F)c4)c(Cl)c3)c2cc1NC(=O)/C=C/CN(C)C | 84%
O=C(O)c1ccc2cc(-c3ccc(O)c(C45CC6CC(CC(C6)C4)C5)c3)ccc2c1 | 76%
CNC(=O)c1nn(C)c2c1C(C)(C)Cc1cnc(Nc3ccc(N4CCN(C)CC4)cc3)nc1-2 | 87%
CC(C)Oc1ccc(C(=O)N[C@H](CNC(=O)CN(C)C)Cc2ccc(-c3cn4cccc([C@H](C)O)c4n3)cc2)cc1Cl [GSK-923295A] | 81%
Cc1cc2c(cc1N1C(=O)c3cccc4c(CCCO)ccc(c34)C1=O)n(C)c(=O)n2C | 80%
COc1cc2c(Nc3ccc(NC(=O)c4ccccc4)cc3)ncnc2cc1OCCCN1CCOCC1 | 53%
CCc1cc2c(cc1CC)CC(NC[C@H](O)c1ccc(O)c3[nH]c(=O)ccc13)C2 | 89%
Nc1ccc(C(=O)Nc2cccc(-c3nc(N4CCOCC4)c4oc5ncccc5c4n3)c2)cn1 | 83%
CNc1oc(-c2cccc3ccccc23)nc1C#N | 29%
CCOc1cc(N2CCC(O)CC2)ccc1Nc1ncc2c(n1)N(C1CCCC1)CCC(=O)N2C | 87%
COc1cc2c(NC3CCN(C(C)C)CC3)nc(N3CCC(F)(F)CC3)nc2cc1OCCCN1CCCC1 | 79%
COc1cc(N2CCC(N(C)C)CC2)ccc1Nc1ncc(Cl)c(Nc2ccccc2P(C)(C)=O)n1 | 85%
Nc1nc2c(c(N3CCNCC3)n1)CCC1=C2[C@@H]2CCCC[C@@H]2O1 | 75%
CC(C)(C)c1cnc(CSc2cnc(NC(=O)C3CCNCC3)s2)o1 | 87%
Cl.Cl.NC1(c2ccc(-c3nc4ccn5c(=O)[nH]nc5c4cc3-c3ccccc3)cc2)CCC1 | 50%
